# Tested on: MCF-7 (human breast cancer cells)
# assayText: MTT cancer cell growth inhibition
# Format: cell-based
# conditionSummary: Homo sapiens, MCF7, 72 h, 72 hours incubation, read-out: GI50 MCF
# Source text: MTT assay principle is yellow MTT can penetrate membrane into the cell, succinic dehydrogenase of the mitochondria in living cells can make exogenous MTT reduction of insoluble in water of blue-violet acicular formazan for crystallization and deposition in the cell, crystallization can be dissolved dimethyl sulfoxide (DMSO) solution, detected its absorbance at 490 nm/570 nm wavelength by enzyme-linked immunosorbent assay, which can reflect the number of cells. […] e) 570 nm readings. […]
So I've got a bunch of molecules here, and I need their log10(GI50) values.
A difference of one corresponds to tenfold GI50; all values are log10 with GI50 in nM.

[[record]]
recordsmiles = "C/C=C1\\NC(=O)c2cc(F)cc(n2)CNC(=O)C[C@@H](/C=C/CCSC(C)=O)OC(=O)[C@H](C(C)C)NC1=O"
reported = 1.48


Return reported log10(GI50) values for all items listed beneath this line.
1. C/C=C1\NC(=O)c2cc(F)cc(n2)CNC(=O)C[C@@H](/C=C/CCSC(=O)CCC)OC(=O)[C@H](C(C)C)NC1=O
2. C/C=C1\NC(=O)c2cccc(n2)CNC(=O)C[C@@H](/C=C/CCSC(=O)CCCCCCC)OC(=O)[C@H](C(C)C)NC1=O
3. C/C=C1\NC(=O)c2cc(F)cc(n2)CNC(=O)C[C@@H](/C=C/CCSC(C)=O)OC(=O)[C@H](CC)NC1=O
4. C/C=C1\NC(=O)c2cccc(n2)CNC(=O)C[C@@H](/C=C/CCSC(C)=O)OC(=O)[C@H](Cc2ccc(O)cc2)NC1=O
5. C/C=C1\NC(=O)c2nc(ccc2F)CNC(=O)C[C@@H](/C=C/CCSC(C)=O)OC(=O)[C@H](CCCCNC(=O)OCC2c3ccccc3-c3ccccc32)NC1=O

1. 1.70
2. 1.48
3. 1.90
4. 2.69
5. 1.30

Return reported log10(GI50) values for all items listed beneath this line.
1. C/C=C1\NC(=O)c2nc(ccc2F)CNC(=O)C[C@@H](/C=C/CCSC(=O)CCCCCCC)OC(=O)[C@H](CC)NC1=O
2. C/C=C1\NC(=O)c2cccc(n2)CNC(=O)C[C@@H](/C=C/CCSC(=O)CCCCCCC)OC(=O)[C@H](CC)NC1=O
3. C/C=C1\NC(=O)c2nc(ccc2F)CNC(=O)C[C@@H](/C=C/CCSC(=O)CCCC)OC(=O)[C@H](C(C)C)NC1=O
4. C/C=C1\NC(=O)c2cc(F)cc(n2)CCNC(=O)C[C@@H](/C=C/CCSC(C)=O)OC(=O)[C@H](C(C)C)NC1=O
5. C/C=C1\NC(=O)c2ccc(F)c(n2)CNC(=O)C[C@@H](/C=C/CCSC(C)=O)OC(=O)[C@H](CCCCN)NC1=O

1: 1.78; 2: 1.48; 3: 1.78; 4: 1.30; 5: 2.54

# input molecule: C/C=C1\NC(=O)c2ccc(F)c(n2)CNC(=O)C[C@@H](/C=C/CCSC(C)=O)OC(=O)[C@H](CC)NC1=O ; wanted: its log10(GI50)
1.85
